Every entry's value here was drawn from patent US12441742B2.

# testedOn: KRAS G12D (Homo sapiens, UniProt P01116, G12D)
# Sequence (P01116 1-188 isoform P01116-2 G12D): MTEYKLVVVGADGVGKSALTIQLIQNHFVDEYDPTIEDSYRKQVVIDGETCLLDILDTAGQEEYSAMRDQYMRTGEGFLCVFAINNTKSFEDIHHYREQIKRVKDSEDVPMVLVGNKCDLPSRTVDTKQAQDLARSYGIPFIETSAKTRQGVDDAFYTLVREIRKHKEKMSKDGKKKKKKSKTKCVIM
# procedureDetails: KRAS_G12D cellular pERK HTRF assay
# Format: cell-based
# Design: CRL-1997; host or cells: A427 or HPAF-II
# conditionSet: KRAS G12D cells (A427, HPAF-II), 2 hours; read-out: G12D_pERK (KRAS_G12D pERK assay IC50)
pIC50: −log10 of the molar value.
quantityKind: pIC50

Tell me reported pIC50 for COC(=O)CCc1cc2c(OC[C@@]34CCCN3C[C@H](F)C4)nc3c(F)c(-c4cc(O)cc5ccccc45)ncc3c2n1C1C2CNC1C2 (single isomer, unassigned) [Example 2b] , tested with KRAS G12D (Homo sapiens, UniProt P01116, G12D).
6.00 to 7.00

Tell me reported pIC50 for COC(=O)CCc1cc2c(OC[C@@]34CCCN3C[C@H](F)C4)nc3c(F)c(-c4cc(O)cc5ccccc45)ncc3c2n1C1C2CNC1C2 (single isomer, unassigned) [Example 2a] , tested with KRAS G12D (Homo sapiens, UniProt P01116, G12D).
5.30 to 6.00

Tell me reported pIC50 for Cc1cc2c(OCC34CCCN3CCC4)nc3c(F)c(-c4cc(O)cc5ccccc45)ncc3c2n1[C@@H]1[C@@H]2CN[C@H]1C2 (relative stereo) , tested with KRAS G12D (Homo sapiens, UniProt P01116, G12D).
6.00 to 7.00

Tell me reported pIC50 for `C[C@H](Oc1nc2c(F)c(-c3cccc4c3OCCC4)ncc2c2c1cc(-c1cn(C)nc1C(=O)N(C)C)n2[C@H]1[C@H]2CN[C@@H]1C2)[C@@H]1CCCN1C` , tested with KRAS G12D (Homo sapiens, UniProt P01116, G12D).
5.30 to 6.00

Tell me reported pIC50 for C[C@H](Oc1nc2c(F)c(N3CCCc4ccccc43)ncc2c2c1cc(CN1CCOC1=O)n2C1C2CNC1C2)[C@@H]1CCCN1C (single isomer, unassigned) , tested with KRAS G12D (Homo sapiens, UniProt P01116, G12D).
5.30 to 6.00

Tell me reported pIC50 for CN(C)C(=O)CCc1nc2c(N3CC(N(C)C)C3)nc3cc(-c4cc(O)cc5ccccc45)c(CCC#N)nc3c2n1C1C2CNC1C2 (single isomer, unassigned) [Example 17b] , tested with KRAS G12D (Homo sapiens, UniProt P01116, G12D).
5.00 to 5.30

Tell me reported pIC50 for Cc1cc2c(O[C@@H](C)[C@@H]3CCCN3C)nc3c(F)c(-c4cc(O)cc5ccccc45)ncc3c2n1C1C2CNC1C2 (single isomer, unassigned) , tested with KRAS G12D (Homo sapiens, UniProt P01116, G12D).
6.00 to 7.00
